- Tested on: STAT3
- assay.summary: STAT3 transcription inhibition test (reporter gene method)
- Format: cell-based
- recorded.conditions: Homo sapiens; compound at 100 μM; STAT3 reporter HeLa stable cell line, oncostatin M 10 ng/mL, 4 hours; read-out: STAT3 transcription inhibitory activity (%)
observation.type: inhibition at 100 µM (%)
Numbers only, in %.

Record excerpt, results attached:
molecule | subject.of.test | unit.symbol | inhibition at 100 µM
C=Cc1ccc(-c2cccc(C(=O)Nc3nnc(-c4ccco4)o3)c2)cc1 [Compound Ia-13] | STAT3 | % | 67
O=C(Nc1nnc(-c2ccco2)o1)c1cccc(-c2ccc3sccc3c2)c1 [Compound Ia-47] | STAT3 | % | 58
N#Cc1ccc(-c2cccc(C(=O)Nc3nnc(-c4ccco4)o3)c2)cc1 [Compound Ia-21] | STAT3 | % | 62
O=C(Nc1nnc(-c2ccco2)o1)c1cc(-c2ccccc2)nc2nc(N3CCC(F)(F)CC3)sc12 [Compound Ib-32] | STAT3 | % | 80
CCOC(=O)c1ccc(-c2ccc(C(=O)Nc3nnc(-c4ccco4)o3)o2)cc1 [Compound Ic-12] | STAT3 | % | 73

For every record below, what is its inhibition at 100 µM?
1. O=C(Nc1nnc(-c2ccco2)o1)c1ccc(-c2cccc(Cl)c2)o1 [Compound Ic-4]
2. CC(=O)c1ccc(-c2cccc(C(=O)Nc3nnc(-c4ccco4)o3)c2)cc1 [Compound Ia-18]
3. COC(=O)c1ccc(-c2cccc(C(=O)Nc3nnc(-c4ccco4)o3)c2)cc1 [Compound Ia-69]
4. O=C(Nc1nnc(-c2ccco2)o1)c1cccc(-c2ccc(Cl)cc2)c1 [Compound Ia-11]
5. O=C(Nc1nnc(-c2ccco2)o1)c1cccc(-c2ccc([N+](=O)[O-])cc2)c1 [Compound Ia-24]

output:
[81, 71, 53, 67, 94]
